Known Kd of a selection of binders
target: T1, biotinylated human VWF cysteine knot (CK) domain construct (human, UniProt P04275 2724-2813, biotinylated in vitro (BirA) on the biotinylation tag; one N-glycan); assay: SPR, scFv captured via anti-SV5, CK domain injected, pH 7.4, apparent Kd;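 further: scFvs from crude yeast supernatants printed on an amine-coupled anti-SV5 lawn, Kd computed as koff over kon, likely overestimating affinity because the CK construct is dimeric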
T1 construct: Expressed in HEK293 EBNA cells; disulfide-linked homodimer; also called human VWF CK; human VWF CK domain; not shown: in vitro biotinylation tag, HRV-3C site and 3 VWF residues before the CK domain
Please reply with the bare figure in nM and do not write the unit itself.

Solved cases (3 shown):
binder	readout.label	numeric.result
1675_Lib1_scFv (scFv, VH-linker-VL; not shown: C-terminal 3xFLAG and SV5 tags) scFv: QVQLVQSGAEVKKPGASVKVSCKVSGVTLTSSAISWVRQAPGKGLEWMGGITPIFGTPIYAQKFQGRVTMTEDTSTDTAYMELSSLKSEDTAVYYCATDYGYPFWAFDIWGQGTMVTVSSSGGSTITSYNVYYTKLSSSGTDIQMTQSPSSVSASVGDRVTITCRASQGIYSALAWYQQKPGKAPKLLIYESSKRPSGVPSRFSGSGSGTDFTLTISSLQPEDFANYYCEQYASSPPTFGGGTKVEIK	Kd	0.077
256_Lib8_scFv (scFv, VH-linker-VL; not shown: C-terminal 3xFLAG and SV5 tags) scFv: EVQLVESGGGLVQPGRSLRLSCAASGFTVSSNAMHWVRQAPGKGLEWVSAIGTFADTDYADSVEGRFTISRDNAKNSLYLQMNSLRAEDTAVYYCAREGAAAGTNFDYWGQGTLVTVSSSGGSTITSYNVYYTKLSSSGTDIQMTQSPSSLSASVGDRVTITCRASQGIRSYLAWYQQKPGKAPKLLIYGASTLEGGVPSRFSGSGSGTDFTLTISSLQPEDVATYYCQQSYSTPPKFGGGTKVEIK	Kd	1.76
Lib4_P2_A10_scFv (scFv, VH-linker-VL; not shown: C-terminal 3xFLAG and SV5 tags) scFv: QVQLQESGPGLVKPSQTLSLTCTVSGASLGHQYWSWIRQPPGKGLEWIGYIDTSGSTDYNPSLKSRVTMSVDTSKNQFSLKVNSVTAADTAVYYCARVANYYYYMDVWGKGTTVTVSSSGGSTITSYNVYYTKLSSSGTEIVMTQSPATLSLSPGERATLSCRASQSVSNRLAWYQQKPGQAPRLLIYDASNRATGIPARFSGSGSGTDFTLTISSLEPEDFAVYYCQQYFITPSTFGGGTKVEIK	Kd	2.7

INPUT: Fill in the blank: the reported Kd of Lib1_P1_C6_scFv (scFv, VH-linker-VL; not shown: C-terminal 3xFLAG and SV5 tags) scFv: QVQLVQSGAEVKKPGASVKVSCKVSGYTFASHYIHWVRQAPGKGLEWMGGMDPATGQTIYAQKFQGRVTMTEDTSTDTAYMELSSLKSEDTAVYYCAKGDRSSWYEVLSFQHWGQGTLVTVSSSGGSTITSYNVYYTKLSSSGTDIQMTQSPSSVSASVGDRVTITCRASQGISTDLAWYQQKPGKAPKLLIYDASILQRGVPSRFSGSGSGTDFTLTISSLQPEDFANYYCQQVRTYPFTFGGGTKVEIK is ____.
OUTPUT: 0.691

INPUT: Which Kd reading was recorded for the binder Lib1_P1_A5_scFv (scFv, VH-linker-VL; not shown: C-terminal 3xFLAG and SV5 tags) scFv: QVQLVQSGAEVKKPGASVKVSCKVSGDTLSNYAIHWVRQAPGKGLEWMGGINPNAGTTIYAQKFQGRVTMTEDTSTDTAYMELSSLKSEDTAVYYCARDSSSWCPVGYYYYYMDVWGKGTTVTVSSSGGSTITSYNVYYTKLSSSGTDIQMTQSPSSVSASVGDRVTITCRASQSIGDFLAWYQQKPGKAPKLLIYDASHLQTGVPSRFSGSGSGTDFTLTISSLQPEDFANYYCQQTSTIPPTFGGGTKVEIK ?
OUTPUT: 6.37
